System: KM12 colon
Protocol description: NCI tumour cell line growth inhibition, 48 h
Assay endpoint: TGI

Look over these answered cases.
Compound	Target desc	TGI
Nn1c(Sc2nc3ccccc3c(=O)n2N)nc2ccccc2c1=O	KM12 colon	> 62.3 µM
COc1cc(C2c3cc4c(cc3[C@@H](N(C)C)[C@H]3COC(=O)C23)OCO4)cc(OC)c1O (stereo not given in full)	KM12 colon	> 100 µM
COC(=O)C1Cc2c([nH]c3ccccc23)C(c2ccccc2O)N1Cc1ccccc1 (stereo not given)	KM12 colon	> 31.6 µM
COc1cc2c3c(ncc2c(OC)c1OC)-c1cc2c(cc1C3)OCO2	KM12 colon	> 100 µM

Problem: Given the compound C=CC(OC(C)=O)c1ccc(OC(C)=O)cc1 (stereo not given) , what is its reported TGI?
Result: 18.6 µM

###

Tested on: A498 renal
Protocol description: NCI tumour cell line growth inhibition, 48 h
Assay endpoint: TGI

Previously resolved entries follow.
Molecule	TGI
COC(=O)c1ccc2c(c1)C(=O)c1c-2n(CCCN)c(=O)c2cc(OC)c(OC)cc12	36.2 µM
COc1cc(C)cc2c(-c3c(O)cc(O)c4c3C[C@H](C)N[C@H]4C)cc(-c3cc(-c4c(O)cc(O)c5c4C[C@H](C)N[C@H]5C)c4cc(C)cc(OC)c4c3O)c(O)c12	> 100 µM
Cn1cc(C2=C(c3cn(C)c4cc(N)ccc34)C(=O)NC2=O)c2ccccc21	7.54 µM
CC[C@@]12C=CCN3CC[C@]4(c5cc(NC(=O)COc6cc(OCC(=O)Nc7cc8c(cc7OC)N(C)[C@H]7[C@@](O)(C(=O)OC)[C@H](OC(C)=O)[C@]9(CC)C=CCN%10CC[C@]87[C@@H]%109)cc7oc(-c8ccccc8)cc(=O)c67)c(OC)cc5N(C)[C@@H]4[C@](O)(C(=O)OC)[C@H]1OC(C)=O)[C@H]32	22.3 µM
CCCCN(CC)c1ncnc2ccc(Br)cc12	23.6 µM
COC(=O)c1cc(-c2ccc(OC)cc2)[nH]c1N/N=C/c1c(Cl)cccc1Cl	3.43 µM
Cc1ccc(/C=N\NC(=O)c2ccncc2)s1	> 100 µM
COC(=O)[C@@]1(C)CCC[C@]2(C(=O)O)C3Cc4occc4[C@H](C)[C@@H]3CCC21 (stereo partly specified)	> 100 µM

Problem: Quick one: TGI of O=C1C(Cl)=C(c2ccc([N+](=O)[O-])cc2)C(=O)c2c(O)cccc21 ?
Result: 12.5 µM

Problem: Also CC(=O)NC(=O)NC1=NCCC(=O)N1CCc1c[nH]c2ccccc12 , if possible.
Result: > 100 µM

Problem: Now try CCN(CCCl)c1cccc(NC(=O)c2ccc(C(=O)Nc3cccc(CN(C)C)c3)cc2)c1 .
Result: 0.502 µM

Problem: Another molecule: COc1cc2c(c(OC)c1)C(=O)O[C@H](C)CCCC/C=C/C2
Result: > 100 µM

Problem: Try the molecule COc1ccc(/C=C\c2cc(OC)c(OC)c(OC)c2)c(NS(=O)(=O)c2ccc(Cl)cc2)c1O
Result: 0.422 µM

Problem: Follow-up entry: COC(=O)[C@H]1N[C@@H](C(=O)OC)C23CCC[C@H]2CC[C@]1(C(OC)OC)C3
Result: > 100 µM

Problem: What about CC1=CC[C@](C)(O)[C@@]2(C)CC[C@H]3C(=C(C)C)C(=O)C[C@]3(C)C[C@H]12 ?
Result: > 50 µM

Problem: Param item: CC(/C=C/NNC1=NC(c2ccccc2)C(c2ccccc2)=NN1)Sc1ccccc1N (stereo unspecified)
Result: 26.6 µM

Problem: Please do the same for CCCCCCCCCCCCCCCCCCNC(=O)OCC(CNS(=O)(=O)CCC[n+]1cccc2ccccc21)COC (stereo unspecified) as well.
Result: 64.9 µM
